Test system: P. vulgatus RND KO
Assay: growth AUC normalised to DMSO control (median) (fraction of control); higher = less growth inhibition, active = hit call of the paper;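 further: active when median AUC fell below 0.1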
Details: 20 µM
Counter-ions that a name gives are not always drawn.
Recorded growth AUC normalised to DMSO control by entry
metric: growth AUC normalised to DMSO control

* O=C(O)C1CSCN1 (stereo not drawn) [Timonacic] | 0.993 (inactive)
* CCOc1ccc2nc(S(N)(=O)=O)sc2c1 [Ethoxzolamide] | 0.965 (inactive)
* CCCC(=O)Nc1ccc(OCC(O)CNC(C)C)c(C(C)=O)c1 (stereo not drawn) [Acebutolol hydrochloride] | 1.01 (inactive)
* CC(C)(C)NC[C@H](O)COc1nsnc1N1CCOCC1 [Timolol maleate salt] | 1.01 (inactive)
* Clc1ccc(CO/N=C(\Cn2ccnc2)c2ccc(Cl)cc2Cl)c(Cl)c1 [Oxiconazole nitrate] | 1.01 (inactive)
* CC(COc1ccccc1)NC(C)C(O)c1ccc(O)cc1 (stereo not drawn) [Isoxsuprine hydrochloride] | 1.02 (inactive)
* CC[C@@H]([C@H](C)O)n1ncn(-c2ccc(N3CCN(c4ccc(OC[C@@H]5CO[C@@](Cn6cncn6)(c6ccc(F)cc6F)C5)cc4)CC3)cc2)c1=O [Posaconazole hydrate] | 0.87 (inactive)
* CCOC(=O)C(C)(N)Cc1cc(I)c(Oc2cc(I)c(O)c(I)c2)c(I)c1 (stereo not drawn) [Etiroxate hydrochloride] | 0.415 (inactive)

* * *

Recorded growth AUC normalised to DMSO control by entry
Test system: S. enterica typhimurium WT
Test: growth AUC normalised to DMSO control (median) (fraction of control); higher = less growth inhibition, active = hit call of the paper
Details: 20 µM
Counter-ions that a name gives are not always drawn.
metric: growth AUC normalised to DMSO control

• N#C/C(=C1/SCC(c2ccccc2Cl)S1)n1ccnc1 (stereo not drawn) = 1
• c1ccc(-c2ccc(C(c3ccccc3)n3ccnc3)cc2)cc1 (stereo not drawn) = 0.999
• CN1C(C(=O)Nc2ccccn2)=C(O)c2ccccc2S1(=O)=O = 1.01
• CN(C)CCCN1c2ccccc2CCc2ccccc21 [Imipramine hydrochloride] = 1.02
• Cc1cn[nH]c1 [Fomepizole] = 0.993
• CC1(C)S[C@@H]2[C@H](NC(=O)Cc3ccccc3)C(=O)N2[C@H]1C(=O)O [Benzylpenicillin sodium] = 0.0318
• COc1ccc(C(=O)c2ccccc2O)c(O)c1 = 0.993
• CC(=O)N(O)CCCCCNC(=O)CCC(=O)N(O)CCCCCNC(=O)CCC(=O)N(O)CCCCCN [Deferoxamine mesylate] = 0.998
• CN1CC(=O)N2[C@H](c3ccc4c(c3)OCO4)c3[nH]c4ccccc4c3C[C@@H]2C1=O = 0.996
• CC1CC(OC(=O)C(O)c2ccccc2)CC(C)(C)C1 (stereo not drawn) [Cyclandelate] = 1
• O=S(=O)(O)c1cc(O)ccc1O [Ethamsylate diethylammonium salt] = 1
• CN(C)CCc1c[nH]c2ccc(Cn3cncn3)cc12 [Rizatriptan benzoate] = 1
• CCOc1cc(N)c(Cl)cc1C(=O)NCC1CN(Cc2ccc(F)cc2)CCO1 (stereo not drawn) [Mosapride] = 0.988
• C[C@@H]1CN(c2c(F)c(N)c3c(=O)c(C(=O)O)cn(C4CC4)c3c2F)C[C@H](C)N1 = 0.0129
• Nc1ncnc2c1ncn2C1OC(COP(=O)(O)O)C(O)C1O (stereo not drawn) [Adenosine 5'-monophosphate monohydrate] = 0.992
• CC(=O)O[C@]1(C(C)=O)CC[C@H]2[C@@H]3C=C(Cl)C4=CC(=O)CC[C@]4(C)[C@H]3CC[C@@]21C [Chlormadinone acetate] = 0.998
• N/C(=N\C(=O)c1nc(Cl)c(N)nc1N)NCc1ccccc1 [Benzamil hydrochloride] = 0.998
• CCOc1ccc(Cc2nccc3cc(OCC)c(OCC)cc23)cc1OCC [Ethaverine hydrochloride] = 1
